# Lookup of reported Plant response rating, Galium keyed by entry
# Tested on: Galium (catchweed bedstraw, Galium aparine)
# MEASUREMENT_PROTOCOL: Test C preemergence
# Type: in vivo
# CONDITION_INFO: 62 g ai/ha, scale 0 to 100, 0 no effect, 100 complete control

{"COMPOUND": "CN1CC(c2ccc(C(C)(F)F)cc2)C(C(=O)Nc2cccc(F)c2F)C1=O (stereo not shown)", "Plant response rating, Galium": 98}
{"COMPOUND": "O=C1NCC(c2cccc(OC(F)F)c2)C1C(=O)Nc1ccc(F)cc1F (stereo not shown)", "Plant response rating, Galium": 0}
{"COMPOUND": "CN1CC(c2cccc(OC(F)F)c2)C(C(=O)Nc2cccc(F)c2F)C1=O (stereo not shown)", "Plant response rating, Galium": 85}
{"COMPOUND": "O=C1NCC(c2cccc(OC(F)(F)C(F)F)c2)C1C(=O)Nc1cccc(F)c1F (racemic)", "Plant response rating, Galium": 85}

====

Reported Plant response rating, Galium is given for each of the following molecules.
# Test system: Galium (catchweed bedstraw, Galium aparine)
# MEASUREMENT_PROTOCOL: Test A postemergence
# Format: in vivo
# CONDITION_INFO: 500 g ai/ha, postemergence; visual injury, 0 to 100 scale (0 no effect, 100 complete control), approx. 10 d
OBSERVED_PROPERTY: Plant response rating, Galium

{"MOLECULE": "C=CCOc1cccc(C2CNC(=O)C2(CC=C)C(=O)Nc2cccc(F)c2F)c1 (centres unmarked)", "TARGET_DESC": "Galium (catchweed bedstraw, Galium aparine)", "RECORDED_MEASUREMENT": 0}
{"MOLECULE": "CN1CC(c2cc(F)cc(F)c2)C(C(=O)Nc2ccccc2F)C1=O (centres unmarked)", "TARGET_DESC": "Galium (catchweed bedstraw, Galium aparine)", "RECORDED_MEASUREMENT": 50}
{"MOLECULE": "CN1CC(c2cccc(F)c2)C(C(=O)Nc2ccc(F)cc2F)C1=O (centres unmarked)", "TARGET_DESC": "Galium (catchweed bedstraw, Galium aparine)", "RECORDED_MEASUREMENT": 50}
{"MOLECULE": "CN1CC(c2cccc(C(F)(F)F)c2)C(C(=O)Nc2ccccc2C(F)(F)F)C1=O (centres unmarked)", "TARGET_DESC": "Galium (catchweed bedstraw, Galium aparine)", "RECORDED_MEASUREMENT": 60}
{"MOLECULE": "O=C(Nc1ccccc1F)C1C(=O)N(CC2CC2)CC1c1cccc(C(F)(F)F)c1 (centres unmarked)", "TARGET_DESC": "Galium (catchweed bedstraw, Galium aparine)", "RECORDED_MEASUREMENT": 0}

====

# Tested on: pigweed (Amaranthus retroflexus)
# MEASUREMENT_PROTOCOL: Test C preemergence
# Format: in vivo
# CONDITION_INFO: 62 g ai/ha, scale 0 to 100, 0 no effect, 100 complete control
Criterion: Plant response rating, Pigweed strictly under 70. Met: t. Not met: f.

{"MOLECULE": "CN1CC(c2cccc(OC(F)(F)C(F)F)c2)C(C(=O)Nc2ccc(F)c(F)c2F)C1=O (centres unmarked)", "GROUP": "f"}
{"MOLECULE": "CN1CC(c2cccc(OC(F)(F)C(F)F)c2)C(C(=O)Nc2ccccc2C(F)(F)F)C1=O (centres unmarked)", "GROUP": "t"}
{"MOLECULE": "O=C1NCC(c2ccc(I)cc2)C1C(=O)Nc1cccc(F)c1F (racemic)", "GROUP": "t"}
{"MOLECULE": "CN1CC(c2cc(F)cc(F)c2)C(C(=O)Nc2ccc(F)c(F)c2F)C1=O (centres unmarked)", "GROUP": "t"}

====

Below, each entry is listed alongside its reported pest or weed control at 125 g/ha.
# Test system: blackgrass (Alopecurus myosuroides)
# MEASUREMENT_PROTOCOL: Test A postemergence
# Type: in vivo
# CONDITION_INFO: Alopecurus myosuroides, post-emergence, 240 h, 125 g ai/ha, Postemergence, visual rating about 10 d after treatment; read-out: Blackgrass plant response rating (0 to 100 scale)
OBSERVED_PROPERTY: pest or weed control at 125 g/ha (%)

{"CHEM_SMILES": "CN1C[C@H](c2ccc(C(F)(F)F)cc2)[C@@H](C(=O)Nc2ccccc2-n2cncn2)C1=O", "UNIT_ABBREVIATION": "%", "RECORDED_MEASUREMENT": 0}
{"CHEM_SMILES": "CN1C[C@H](c2cccc(C(F)(F)F)c2)[C@@H](C(=O)Nc2ccccc2-n2cccn2)C1=O", "UNIT_ABBREVIATION": "%", "RECORDED_MEASUREMENT": 0}
{"CHEM_SMILES": "CN1C[C@H](c2cccc(C#N)c2)[C@@H](C(=O)Nc2ccccc2F)C1=O", "UNIT_ABBREVIATION": "%", "RECORDED_MEASUREMENT": 0}
{"CHEM_SMILES": "CN1C[C@H](c2cc(Cl)cc(Cl)c2)[C@@H](C(=O)Nc2ccccc2F)C1=O", "UNIT_ABBREVIATION": "%", "RECORDED_MEASUREMENT": 40}

====

# System: wheat (Triticum aestivum)
# MEASUREMENT_PROTOCOL: Test A postemergence
# Type: in vivo
# CONDITION_INFO: Triticum aestivum, post-emergence, 240 h, 500 g ai/ha, postemergence; visual injury, 0 to 100 scale (0 no effect, 100 complete control), approx. 10 d; read-out: Plant response rating, Wheat

{"CHEM_SMILES": "CC(C)COc1cccc([C@H]2CN(C)C(=O)[C@@H]2C(=O)Nc2cccc(F)c2F)c1", "plant injury at 500 g/ha, %": 60}
{"CHEM_SMILES": "Cc1ccc([C@H]2CN(C)C(=O)[C@@H]2C(=O)Nc2ccccc2S(C)(=O)=O)cc1Cl", "plant injury at 500 g/ha, %": 50}
{"CHEM_SMILES": "CN1CC[C@H](c2ccc(OC(F)(F)F)cc2)[C@@H](C(=O)Nc2ccc(F)c(F)c2F)C1=O", "plant injury at 500 g/ha, %": 0}
{"CHEM_SMILES": "CC(C)COc1cccc([C@H]2CN(C)C(=O)[C@@H]2C(=O)Nc2ccccc2F)c1", "plant injury at 500 g/ha, %": 40}

====

Let's look at some compounds and their measured Plant response rating, Ducksalad.
# System: ducksalad (Heteranthera limosa)
# MEASUREMENT_PROTOCOL: Test B flooded paddy test
# Format: in vivo
# CONDITION_INFO: Flood, 250 g ai/ha; 0 to 100 scale where 0 is no effect and 100 is complete control; 13 to 15 d

{"COMPOUND": "CN1CC(c2ccc(F)cc2)C(C(=O)Nc2ccccc2F)C1=O (stereo not shown) [Compound 437]", "Plant response rating, Ducksalad": 100}
{"COMPOUND": "O=C1NCC(c2cc(F)ccc2F)C1C(=O)Nc1ccc(F)cc1F (racemic) [Compound 545]", "Plant response rating, Ducksalad": 0}
{"COMPOUND": "O=C1NCC(c2cc(F)c(F)cc2F)C1C(=O)Nc1cccc(F)c1F (racemic) [Compound 550]", "Plant response rating, Ducksalad": 95}
{"COMPOUND": "CC(=O)Oc1cccc(C2CNC(=O)C2C(=O)Nc2cccc(F)c2F)c1 (stereo not shown) [Compound 432]", "Plant response rating, Ducksalad": 0}
{"COMPOUND": "CC(C)=CCN1CC(c2cccc(C(F)(F)F)c2)C(C(=O)Nc2ccccc2F)C1=O (stereo not shown) [Compound 478]", "Plant response rating, Ducksalad": 0}
{"COMPOUND": "CC(C)c1ccc(C2CNC(=O)C2C(=O)Nc2ccccc2S(C)(=O)=O)cc1 (racemic) [Compound 500]", "Plant response rating, Ducksalad": 65}
{"COMPOUND": "CN1CC(c2ccc(C(C)(F)F)cc2)C(C(=O)Nc2cccc(F)c2F)C1=O (stereo not shown) [Compound 690]", "Plant response rating, Ducksalad": 75}
{"COMPOUND": "CN1CC(c2cccc(C(F)(F)F)c2)C(C(=O)Nc2ccccc2C(F)(F)F)C1=O (stereo not shown) [Compound 638]", "Plant response rating, Ducksalad": 100}
{"COMPOUND": "O=C1NCC(c2c(F)cccc2F)C1C(=O)Nc1ccc(F)cc1F (racemic) [Compound 517]", "Plant response rating, Ducksalad": 0}
{"COMPOUND": "CN1CC(c2cccc(F)c2)C(C(=O)Nc2ccc(F)cc2F)C1=O (stereo not shown) [Compound 633]", "Plant response rating, Ducksalad": 100}

====

Below is a list of entries, each paired with its recorded pest or weed control at 125 g/ha value.
# Test system: pigweed (Amaranthus retroflexus)
# MEASUREMENT_PROTOCOL: Test A preemergence
# Type: in vivo
# CONDITION_INFO: Amaranthus retroflexus, pre-emergence, 240 h, 125 g ai/ha, preemergence; visual rating after approx. 10 d; 0 to 100 scale where 0 is no effect and 100 is complete control; read-out: Plant response rating, Pigweed
OBSERVED_PROPERTY: pest or weed control at 125 g/ha (%)

{"COMPOUND": "Cc1cc([C@H]2CN(C)C(=O)[C@@H]2C(=O)Nc2cccc(F)c2F)cc(C)c1C", "TARGET_DESC": "pigweed (Amaranthus retroflexus)", "RECORDED_MEASUREMENT": 40}
{"COMPOUND": "CN1CC[C@H](c2cccc(OC(F)(F)F)c2)[C@@H](C(=O)Nc2ccccc2C(F)(F)F)C1=O", "TARGET_DESC": "pigweed (Amaranthus retroflexus)", "RECORDED_MEASUREMENT": 0}
{"COMPOUND": "CN1C[C@H](c2ccc(C(F)(F)F)c(Br)c2)[C@@H](C(=O)Nc2cccc(F)c2F)C1=O", "TARGET_DESC": "pigweed (Amaranthus retroflexus)", "RECORDED_MEASUREMENT": 60}
{"COMPOUND": "CN1C[C@H](c2cccc(S(C)(=O)=O)c2)[C@@H](C(=O)Nc2cccc(F)c2F)C1=O (racemic)", "TARGET_DESC": "pigweed (Amaranthus retroflexus)", "RECORDED_MEASUREMENT": 0}
{"COMPOUND": "O=C1NC[C@H](c2csc3ccccc23)[C@H]1C(=O)Nc1ccccc1F", "TARGET_DESC": "pigweed (Amaranthus retroflexus)", "RECORDED_MEASUREMENT": 0}
{"COMPOUND": "CN1C[C@H](c2ccc(OC(F)F)cc2)[C@@H](C(=O)Nc2ccccc2S(C)(=O)=O)C1=O", "TARGET_DESC": "pigweed (Amaranthus retroflexus)", "RECORDED_MEASUREMENT": 80}
{"COMPOUND": "CN1CC[C@H](c2ccc3c(c2)OC(F)(F)O3)[C@@H](C(=O)Nc2ccccc2C(F)(F)F)C1=O", "TARGET_DESC": "pigweed (Amaranthus retroflexus)", "RECORDED_MEASUREMENT": 0}
